Each record here notes measured solubility.
details: 25 °C
Where a SMILES comes first, the peptide text is derived from it.

Molecule: CC(C)[C@H](NCCC#N)C(=O)O
solubility: 75.2 mM
--
Molecule: O=COCc1ccco1
solubility: 104 mM
--
Molecule: CCOc1ccc(C(=O)O)c2ccccc12
solubility: 0.0772 mM
--
Molecule: CCCC(C)CC(C)O (stereo not drawn)
solubility: 13.2 mM
--
Molecule: CC1OC(=O)c2cc(N)ccc21 (stereo not drawn)
solubility: 16.3 mM
--
Molecule: CC(=O)N[C@@H](C(=O)O)C(C)C (racemic)
solubility: 354 mM
--
Molecule: CCCCCCCCCCNC(=O)c1cccnc1
solubility: 0.838 mM
--
Molecule: OCc1ccccc1CO
solubility: 1140 mM
--
Molecule: Sc1nc2ccccc2o1
solubility: 6.61 mM
--
Molecule: CCC(C)(C)C1CCC(=NO)C(=NO)C1 (stereo not drawn)
solubility: 0.108 mM
--
Molecule: O=C(NC(=O)c1cccnc1)Nc1ccccc1
solubility: 0.414 mM
--
Molecule: CCCCOP(=O)(O)OCCCC
solubility: 81.8 mM
--
Molecule: CCCCS(=O)(=O)C(S(=O)(=O)CCCC)S(=O)(=O)CCCC
solubility: 1.06 mM
--
Molecule: CC(C)[C@@H](Br)C(=O)O
solubility: 78.9 mM
--
Molecule: Cc1[nH]c(=O)[nH]c(=O)c1CC(=O)O
solubility: 4.89 mM
--
Molecule: CC(C(=O)O)N(CCC#N)CCC#N (stereo not drawn)
solubility: 666 mM
--
Molecule: Nc1cc([N+](=O)[O-])ccc1Br
solubility: 0.277 mM
--
Molecule: CCCCCCCCCCOC(=O)c1cccnc1
solubility: 0.646 mM
--
Molecule: CCc1c[nH]c(=O)nc1N
solubility: 95.6 mM
--
Molecule: NNC(=O)CC(=O)NN
solubility: 757 mM
--
Molecule: CCCCCCCCCCCCNC(=O)c1cccnc1
solubility: 0.62 mM
--
Molecule: CCCCCCOC(=O)CCOCC
solubility: 1.48 mM
--
Molecule: CC1CCCC(=NO)C1=NO (stereo not drawn)
solubility: 25.6 mM
--
Molecule: CCCCCCOC(=O)c1cccnc1
solubility: 2.22 mM
--
Molecule: CCC/C(=C\C(=O)O)C(=O)O
solubility: 70.2 mM
--
Molecule: O=C(O)c1ccc([N+](=O)[O-])c2cccnc12
solubility: 0.683 mM
--
Molecule: CCC1OC(=O)c2cc([N+](=O)[O-])ccc21 (stereo not drawn)
solubility: 2.82 mM
--
Molecule: CCCCCOP(=O)(OCC)OCC
solubility: 33.4 mM
--
Molecule: NC(C(=O)O)C(O)C(=O)O (stereo not drawn)
solubility: 149 mM
--
Molecule: CC(C)C[C@H](N)C(=O)N[C@@H](CCC(=O)O)C(=O)O (H-Leu-Glu-OH)
solubility: 127 mM
--
Molecule: O=C(O)CSCC(=O)O
solubility: 2660 mM
--
Molecule: CCCCOP(=O)(OCC)OCCCC
solubility: 14.3 mM
--
Molecule: CCC(=O)Oc1ccc([N+](=O)[O-])cc1
solubility: 0.128 mM
--
Molecule: O=C1C(=O)c2ccccc2-c2ccccc21
solubility: 0.036 mM
--
Molecule: O=C(O)CCC(=O)c1ccc2ccccc2c1
solubility: 0.14 mM
--
Molecule: Oc1cnn(-c2ccccc2)c1
solubility: 10.9 mM
--
Molecule: CCCC(C)C(O)CC (stereo not drawn)
solubility: 10.9 mM
--
Molecule: NC(=O)NCCC(=O)O
solubility: 158 mM
--
Molecule: O=C1OCc2ccc(Cl)cc21
solubility: 3.3 mM
--
Molecule: CCCCCCCCOC(=O)c1cccnc1
solubility: 0.807 mM
--
Molecule: CSCCC(NC(C)=O)C(=O)O (racemic)
solubility: 1070 mM
--
Molecule: CNC(CC(C)C)C(=O)O (stereo in doubt)
solubility: 306 mM
--
Molecule: O=NN1CCCC1=O
solubility: 1130 mM
--
Molecule: CCCOCCC(=O)OCCC
solubility: 20.7 mM
--
Molecule: CCCCCN(N=Cc1ccc([N+](=O)[O-])o1)C(N)=O
solubility: 1.27 mM
--
Molecule: O=C(O)c1c(O)ccc2ccccc12
solubility: 0.744 mM
--
Molecule: O=I(=O)c1ccccc1
solubility: 14.4 mM
--
Molecule: C#CC#CC=C=CCCO
solubility: 12.9 mM
--
Molecule: CN(C)c1cccc(S(=O)(=O)O)c1
solubility: 1990 mM
--
Molecule: O=C(O)[C@@H]1CC[C@H](C(=O)O)SS1
solubility: 44.9 mM
--
Molecule: CCOc1ccccc1C=CC(=O)[O-]
solubility: 1.19 mM
--
Molecule: O=C(O)CNC(=S)SCC(=O)O
solubility: 50 mM
--
Molecule: Cc1ccc(S(=O)(=O)N(Cl)Cl)cc1
solubility: 0.342 mM
--
Molecule: CCC(O)CCC(C)C (stereo not drawn)
solubility: 11.8 mM
--
Molecule: Cn1cnc2c1c(=O)n(CC(=O)O)c(=O)n2C
solubility: 42 mM
--
Molecule: COC(C)C(NC=O)C(=O)O (racemic)
solubility: 242 mM
--
Molecule: CCCC(O)CC(C)C (stereo not drawn)
solubility: 12.4 mM
--
Molecule: C[C@@H](N)[C@@H](O)c1ccccc1
solubility: 132 mM
--
Molecule: CCOP(=O)(OCC)C(Cl)(Cl)Cl
solubility: 17.6 mM
--
Molecule: CCOc1ccc(NC(C)=O)c(C)c1
solubility: 14.5 mM
--
Molecule: COC1CC1
solubility: 763 mM
--
Molecule: Oc1nc2ccccc2nc1O
solubility: 1.54 mM
--
Molecule: CC(=O)CC(CC(=O)O)c1ccccc1 (stereo not drawn)
solubility: 35.8 mM

The measurements presented in this section are drawn from the OPERA property sets (Mansouri et al. 2018).
